- Tested on: MCF7
- METHOD_DESCRIPTION: Cytotoxicity against human MCF7 cells assessed as cell growth at 10^-4 M after 48 hrs by alamar blue assay relative to untreated control
- Type: functional
- REPORTED_CONDITIONS: MCF7, 48 h, read-out: Activity
Let's look at some compounds and their measured growth at 100 µM.
Give the quantity in %, number only.

COc1ccc(N(C)Cc2nc3cc(C(F)(F)F)ccc3nc2-c2ccccc2)cc1OC
54
CCN(Cc1nc2cc(C(F)(F)F)ccc2nc1-c1ccccc1)c1ccc(OC)c(OC)c1
1

I'd like to know its growth at 100 µM. The compound in question is CN(Cc1nc2cc(C(F)(F)F)ccc2nc1-c1ccccc1)c1ccc(F)cc1 180

Entry C#CCN(Cc1nc2cc(C(F)(F)F)ccc2nc1-c1ccccc1)c1cc(OC)c(OC)c(OC)c1 has what growth at 100 µM? 64

Can you look up the measured growth at 100 µM of C#CCN(Cc1nc2cc(C(F)(F)F)ccc2nc1-c1ccccc1)c1ccc(F)cc1 for me? 41

Please give the measured growth at 100 µM for this compound: C#CCN(Cc1nc2cc(C(F)(F)F)ccc2nc1-c1ccccc1)c1ccc(Cl)cc1 67

Item under review: C#CCN(Cc1nc2cc(C(F)(F)F)ccc2nc1-c1ccccc1)c1ccc(OC)c(OC)c1 . Reported growth at 100 µM? 119

Name the reported growth at 100 µM value associated with the compound C#CCN(Cc1nc2cc(C(F)(F)F)ccc2nc1-c1ccccc1)c1ccc(OC(F)(F)F)cc1 17

Given the compound C#CCN(Cc1nc2cc(C(F)(F)F)ccc2nc1-c1ccccc1)c1ccc(F)c(F)c1 , what is its reported growth at 100 µM? 40

* * *

- Test system: SK-MEL-5
- METHOD_DESCRIPTION: Cytotoxicity against human SK-MEL-5 cells at 10^-4 M after 48 hrs by SRB assay
- Type: functional
- REPORTED_CONDITIONS: SK-MEL-5, 48 h, read-out: GI
RECORDED_ENDPOINT: inhibition of growth at 100 µM (%)
Return type: number; implicit unit %.

C#CCN(Cc1nc2cc(C(F)(F)F)ccc2nc1-c1ccccc1)c1ccc(C)cc1
158

Recorded inhibition of growth at 100 µM of C#CCN(Cc1nc2cc(C(F)(F)F)ccc2nc1-c1ccccc1)c1ccc(F)c(F)c1 , please. 144

Bench note: what inhibition of growth at 100 µM did C#CCN(Cc1nc2cc(C(F)(F)F)ccc2nc1-c1ccccc1)c1ccc(F)cc1 show? 180

Tell me the measured inhibition of growth at 100 µM of CCN(Cc1nc2cc(C(F)(F)F)ccc2nc1-c1ccccc1)c1ccc(OC)c(OC)c1 , please. 191

Which inhibition of growth at 100 µM value is on record for C#CCN(Cc1nc2cc(C(F)(F)F)ccc2nc1-c1ccccc1)c1ccc(OC(F)(F)F)cc1 ? 86

* * *

- Test system: OVCAR-3
- METHOD_DESCRIPTION: Cytotoxicity against human OVCAR3 cells at 10^-4 M after 48 hrs by SRB assay
- Assay type: functional
- REPORTED_CONDITIONS: OVCAR-3, 48 h, read-out: GI
RECORDED_ENDPOINT: inhibition of growth at 100 µM (%)
Give just the numeric value; % need not be written.

The following molecules have reported results that may help.
C#CCN(Cc1nc2cc(C(F)(F)F)ccc2nc1-c1ccccc1)c1ccc(OC(F)(F)F)cc1
88
C#CCN(Cc1nc2cc(C(F)(F)F)ccc2nc1-c1ccccc1)c1ccc(F)cc1
94
C#CCN(Cc1nc2cc(C(F)(F)F)ccc2nc1-c1ccccc1)c1ccc(C)cc1
164

Which measured inhibition of growth at 100 µM value corresponds to C#CCN(Cc1nc2cc(C(F)(F)F)ccc2nc1-c1ccccc1)c1ccc(F)c(F)c1 ? 116

Name the reported inhibition of growth at 100 µM value associated with the molecule CCN(Cc1nc2cc(C(F)(F)F)ccc2nc1-c1ccccc1)c1ccc(OC)c(OC)c1 194

* * *

- System: HL-60(TB)
- METHOD_DESCRIPTION: Cytotoxicity against human HL-60(TB) cells at 10^-4 M after 48 hrs by SRB assay
- Format: functional
- REPORTED_CONDITIONS: HL-60, 48 h, read-out: GI
Recorded measurements of inhibition of growth at 100 µM, one per entry
Provide the reading as a plain figure in %.

Use these answered entries as a reference point.
C#CCN(Cc1nc2cc(C(F)(F)F)ccc2nc1-c1ccccc1)c1ccc(F)c(F)c1
79
C#CCN(Cc1nc2cc(C(F)(F)F)ccc2nc1-c1ccccc1)c1ccc(C)cc1
105
C#CCN(Cc1nc2cc(C(F)(F)F)ccc2nc1-c1ccccc1)c1ccc(F)cc1
92

Now let's try a different one.
Please look up its inhibition of growth at 100 µM: CCN(Cc1nc2cc(C(F)(F)F)ccc2nc1-c1ccccc1)c1ccc(OC)c(OC)c1 153

* * *

- Tested on: RPMI-8226
- METHOD_DESCRIPTION: Cytotoxicity against human RPMI8226 cells at 10^-4 M after 48 hrs by SRB assay
- Type: functional
- REPORTED_CONDITIONS: RPMI-8226, 48 h, read-out: GI
Consider the following compounds and their measured inhibition of growth at 100 µM readings.
Lab book: enter the figure in %, no units written.

Worked cases, answers included:
CCN(Cc1nc2cc(C(F)(F)F)ccc2nc1-c1ccccc1)c1ccc(OC)c(OC)c1
162
C#CCN(Cc1nc2cc(C(F)(F)F)ccc2nc1-c1ccccc1)c1ccc(OC(F)(F)F)cc1
88
C#CCN(Cc1nc2cc(C(F)(F)F)ccc2nc1-c1ccccc1)c1ccc(F)cc1
117
C#CCN(Cc1nc2cc(C(F)(F)F)ccc2nc1-c1ccccc1)c1ccc(C)cc1
44

Consider now this further compound.
Request the reported inhibition of growth at 100 µM associated with C#CCN(Cc1nc2cc(C(F)(F)F)ccc2nc1-c1ccccc1)c1ccc(F)c(F)c1 107

* * *

- Test system: CAKI-1
- METHOD_DESCRIPTION: Cytotoxicity against human Caki1 cells at 10^-4 M after 48 hrs by SRB assay
- Format: functional
- REPORTED_CONDITIONS: CAKI-1, 48 h, read-out: GI
Measured inhibition of growth at 100 µM of individual entries
Write down the numeric answer in % and omit the unit.

Reference set (3 entries):
C#CCN(Cc1nc2cc(C(F)(F)F)ccc2nc1-c1ccccc1)c1ccc(OC(F)(F)F)cc1
69
C#CCN(Cc1nc2cc(C(F)(F)F)ccc2nc1-c1ccccc1)c1ccc(C)cc1
147
C#CCN(Cc1nc2cc(C(F)(F)F)ccc2nc1-c1ccccc1)c1ccc(F)cc1
110

Proceed to the following item.
Find the recorded inhibition of growth at 100 µM belonging to CCN(Cc1nc2cc(C(F)(F)F)ccc2nc1-c1ccccc1)c1ccc(OC)c(OC)c1 and report it. 117

* * *

Reported inhibition of growth at 100 µM is given for each of the following compounds.
- Tested on: HT-29
- METHOD_DESCRIPTION: Cytotoxicity against human HT-29 cells at 10^-4 M after 48 hrs by SRB assay
- Type: functional
- REPORTED_CONDITIONS: HT-29, 48 h, read-out: GI
Please respond with the number in % and leave the unit unwritten.

Check out these entries, answers already filled in.
C#CCN(Cc1nc2cc(C(F)(F)F)ccc2nc1-c1ccccc1)c1ccc(OC(F)(F)F)cc1
77
C#CCN(Cc1nc2cc(C(F)(F)F)ccc2nc1-c1ccccc1)c1ccc(F)c(F)c1
70
CCN(Cc1nc2cc(C(F)(F)F)ccc2nc1-c1ccccc1)c1ccc(OC)c(OC)c1
97
C#CCN(Cc1nc2cc(C(F)(F)F)ccc2nc1-c1ccccc1)c1ccc(C)cc1
200

We now examine a further compound.
Can you share its inhibition of growth at 100 µM? I mean this compound: C#CCN(Cc1nc2cc(C(F)(F)F)ccc2nc1-c1ccccc1)c1ccc(F)cc1 80

* * *

- Tested on: A498
- METHOD_DESCRIPTION: Cytotoxicity against human A498 cells at 10^-4 M after 48 hrs by SRB assay
- Assay type: functional
- REPORTED_CONDITIONS: A498, 48 h, read-out: GI
Consider the following compounds and their measured inhibition of growth at 100 µM readings.
// units = %; emit number, no label

Completed entries (count: 4):
C#CCN(Cc1nc2cc(C(F)(F)F)ccc2nc1-c1ccccc1)c1ccc(F)cc1
104
C#CCN(Cc1nc2cc(C(F)(F)F)ccc2nc1-c1ccccc1)c1ccc(F)c(F)c1
78
C#CCN(Cc1nc2cc(C(F)(F)F)ccc2nc1-c1ccccc1)c1ccc(OC(F)(F)F)cc1
87
C#CCN(Cc1nc2cc(C(F)(F)F)ccc2nc1-c1ccccc1)c1ccc(C)cc1
157

// next entry
Looking for the measured inhibition of growth at 100 µM of CCN(Cc1nc2cc(C(F)(F)F)ccc2nc1-c1ccccc1)c1ccc(OC)c(OC)c1 , can you help? 180

The measured values listed here are drawn from ChEMBL document CHEMBL3120154.
